EXPERIMENT: Pharmacokinetic monitoring of plasma LPV and RTV (HPLC/MS–MS) in TB/HIV co-infected patients on LPV/RTV plus rifabutin
Assay type: in vivo, human
PARTICULARS: human, plasma, oral, 150 mg, first group RBT 150 mg TPW; read-out: Cmax, individual patients
EXPERIMENTAL_ENDPOINT: Cmax (ng/mL)

1) CC(C)c1nc(CN(C)C(=O)N[C@H](C(=O)N[C@@H](Cc2ccccc2)C[C@H](O)[C@H](Cc2ccccc2)NC(=O)OCc2cncs2)C(C)C)cs1 | 1910

====

EXPERIMENT: Pharmacokinetic monitoring of plasma LPV and RTV (HPLC/MS–MS) in TB/HIV co-infected patients on LPV/RTV plus rifabutin
Format: in vivo, human
PARTICULARS: human, plasma, oral, LPV/RTV 400/100 mg twice daily with RBT 150 mg TPW (n = 9); median and IQR; read-out: Cmax
Method: This was a pharmacokinetic study based on the use of LPV and RTV in HIV and tuberculosis co-infected adults. They were being treated with rifabutin 150 mg thrice weekly or rifabutin 300 mg thrice weekly. The patients were participating in the RIFLOPI study registered on PACTR201310000629390. […] Data were entered using EpiData (http://www.epidata.dk) and Excel and analysed with Stata, version 13 (https://www.stata.com, StataCorp LP; College Station, TX, USA). […]
EXPERIMENTAL_ENDPOINT: Cmax (ng/mL)

1) CC(C)c1nc(CN(C)C(=O)N[C@H](C(=O)N[C@@H](Cc2ccccc2)C[C@H](O)[C@H](Cc2ccccc2)NC(=O)OCc2cncs2)C(C)C)cs1 | 2700

====

EXPERIMENT: Pharmacokinetic monitoring of plasma LPV and RTV (HPLC/MS–MS) in TB/HIV co-infected patients on LPV/RTV plus rifabutin
Format: in vivo, human
PARTICULARS: human, plasma, oral, LPV/RTV 400/100 mg twice daily with RBT 150 mg TPW (n = 9); median and IQR; read-out: C12 (plasma drug concentration 12 h post-dose)
EXPERIMENTAL_ENDPOINT: concentration at 12 h (ng/mL)

1) CC(C)c1nc(CN(C)C(=O)N[C@H](C(=O)N[C@@H](Cc2ccccc2)C[C@H](O)[C@H](Cc2ccccc2)NC(=O)OCc2cncs2)C(C)C)cs1 [Ritonavir, ritonavir] | 1700

====

EXPERIMENT: Pharmacokinetic monitoring of plasma LPV and RTV (HPLC/MS–MS) in TB/HIV co-infected patients on LPV/RTV plus rifabutin
Type: in vivo, human
PARTICULARS: LPV/RTV 400/100 mg twice daily with RBT 150 mg TPW (arm A, n = 9); median and IQR; plasma; read-out: C0 (plasma drug concentration before the morning dose)
EXPERIMENTAL_ENDPOINT: concentration (ng/mL)

1) CC(C)c1nc(CN(C)C(=O)N[C@H](C(=O)N[C@@H](Cc2ccccc2)C[C@H](O)[C@H](Cc2ccccc2)NC(=O)OCc2cncs2)C(C)C)cs1 [Ritonavir, ritonavir] | 2100

====

EXPERIMENT: Pharmacokinetic monitoring of plasma LPV and RTV (HPLC/MS–MS) in TB/HIV co-infected patients on LPV/RTV plus rifabutin
Assay type: in vivo, human
PARTICULARS: human, plasma, oral, LPV/RTV 400/100 mg twice daily with RBT 300 mg TPW (n = 7); median and IQR; read-out: AUC0–12h
EXPERIMENTAL_ENDPOINT: AUC(0-t) (ng·h/mL)

1. CC(C)c1nc(CN(C)C(=O)N[C@H](C(=O)N[C@@H](Cc2ccccc2)C[C@H](O)[C@H](Cc2ccccc2)NC(=O)OCc2cncs2)C(C)C)cs1 | 6600

====

EXPERIMENT: Pharmacokinetic monitoring of plasma LPV and RTV (HPLC/MS–MS) in TB/HIV co-infected patients on LPV/RTV plus rifabutin
Assay type: in vivo, human
PARTICULARS: human, plasma, oral, LPV/RTV 400/100 mg twice daily with RBT 300 mg TPW (n = 7); median and IQR; read-out: CL (apparent clearance, CL/F) (converted)
EXPERIMENTAL_ENDPOINT: CL/F (mL/min/kg)

1) CC(C)c1nc(CN(C)C(=O)N[C@H](C(=O)N[C@@H](Cc2ccccc2)C[C@H](O)[C@H](Cc2ccccc2)NC(=O)OCc2cncs2)C(C)C)cs1 | 4.83

====

EXPERIMENT: Pharmacokinetic monitoring of plasma LPV and RTV (HPLC/MS–MS) in TB/HIV co-infected patients on LPV/RTV plus rifabutin
Type: in vivo, human
PARTICULARS: human, plasma, oral, LPV/RTV 400/100 mg twice daily with RBT 150 mg TPW (n = 9); median and IQR; read-out: AUC0–12h
EXPERIMENTAL_ENDPOINT: AUC(0-t)

1. CC(C)c1nc(CN(C)C(=O)N[C@H](C(=O)N[C@@H](Cc2ccccc2)C[C@H](O)[C@H](Cc2ccccc2)NC(=O)OCc2cncs2)C(C)C)cs1 | 12700 ng·h/mL

====

EXPERIMENT: Pharmacokinetic monitoring of plasma LPV and RTV (HPLC/MS–MS) in TB/HIV co-infected patients on LPV/RTV plus rifabutin
Format: in vivo, human
PARTICULARS: human, plasma, oral, LPV/RTV 400/100 mg twice daily with RBT 300 mg TPW (n = 7); median and IQR; read-out: C12 (plasma drug concentration 12 h post-dose)
EXPERIMENTAL_ENDPOINT: concentration at 12 h

1) CC(C)c1nc(CN(C)C(=O)N[C@H](C(=O)N[C@@H](Cc2ccccc2)C[C@H](O)[C@H](Cc2ccccc2)NC(=O)OCc2cncs2)C(C)C)cs1 [Ritonavir, ritonavir] | 600 ng/mL
